molecular target: AFP (Homo sapiens, UniProt P02771); construct: purchased Sino Biological Co., LTD; (Beijing); experiment: BLI analysis, steady-state; type: binding; settings: BLI Octet Red96, biotinylated target on SSA sensors, peptide 3.125 to 200 nM, 25°C, kinetics buffer (10 mM PBS, 0.1% BSA, 0.05% Tween-20), steady-state fit, 1:1 model
Sequence (P02771 19-609): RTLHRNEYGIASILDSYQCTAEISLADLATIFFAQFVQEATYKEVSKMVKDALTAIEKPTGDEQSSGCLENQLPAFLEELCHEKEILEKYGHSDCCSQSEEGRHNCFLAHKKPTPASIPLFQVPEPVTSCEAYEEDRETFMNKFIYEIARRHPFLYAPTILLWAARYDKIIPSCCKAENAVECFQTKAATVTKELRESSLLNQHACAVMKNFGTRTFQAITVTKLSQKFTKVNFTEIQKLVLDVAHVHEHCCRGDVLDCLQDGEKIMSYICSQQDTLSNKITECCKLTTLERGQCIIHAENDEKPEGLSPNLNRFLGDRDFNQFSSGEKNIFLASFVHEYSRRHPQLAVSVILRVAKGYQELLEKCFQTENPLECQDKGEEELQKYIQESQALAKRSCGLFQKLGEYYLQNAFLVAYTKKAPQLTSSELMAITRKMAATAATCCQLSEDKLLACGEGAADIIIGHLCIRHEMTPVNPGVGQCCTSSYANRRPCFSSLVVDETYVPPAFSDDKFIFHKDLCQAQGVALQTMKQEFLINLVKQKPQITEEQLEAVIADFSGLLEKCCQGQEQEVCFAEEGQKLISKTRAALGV
Where no end group is shown, it is not given here.
Provide the recorded Kd for the entries that follow.
Note: unit µM is implicit; provide only the numeric part.

Kd reading for WWALEHYPPPYMQIW [Pep-6973] : 0.0693

GET /value?item= PIWWYHAEKPEHWPI [Pep-5890] &field=Kd returns 0.0748

The measured Kd associated with WWWWWPHHDWKLVWC [Pep-7937] reads 0.0406
